procedure-summary: qHTS Validation assay for Inhibitors of Plasmodium falciparum Dd2 growth in vitro; note: nearly all actives have a fitted effect of over 70% in size
experimental-parameters: P. falciparum Dd2 in RBCs, SYBR Green growth, 72 h; series mostly up to 28.7 µM
The whole screen tested about 4,100 compounds, of which about 1,600 (39%) were called active. Roughly 25% stayed inconclusive and do not appear here. Calls come from the whole dose curve; as a rule, active = well fitted inhibition curve with a large enough effect; inconclusive = small, poorly fitted or top-dose-only effect; inactive = no such curve, though single readings can be large or run the other way. The list shows a part of the results.
Outcomes you can answer with include only these: label 1 (active), label 0 (inactive)

Could you please tell me the result logged for COc1cc2c(cc1OC)[C@H](C)N(C(=O)COc1ccccc1)CC2 in this assay? label 0

Could you please tell me the result logged for CC(C)c1noc(-c2cccn3c(CNC(=O)c4cccc(Cl)c4)nnc23)n1 in this assay? label 0

Could you please tell me the result logged for O=C(CCn1c(=O)c2cccn2c2cccnc21)NCc1cccc(Br)c1 in this assay? label 0

Could you please tell me the result logged for Cc1ccc(NC2=C(c3ccc(C(F)(F)F)cc3)C(=O)c3ccccc32)cc1C in this assay? label 1

Could you please tell me the result logged for O=C(c1ccc2c(c1)N(Cc1ccc(Cl)cc1)C(=O)c1ccccc1S2(=O)=O)N1CCCC1 in this assay? label 0

Could you please tell me the result logged for COc1ccccc1-c1nnc2n1C(C(=O)NCCc1ccc(Cl)cc1)CC2 (stereo not given) in this assay? label 1

Could you please tell me the result logged for CCOC(=O)c1ccc(Nc2nc3nonc3nc2Nc2cccc(C)c2C)cc1 in this assay? label 1

Could you please tell me the result logged for Cc1ccccc1-n1c(=O)/c(=C\c2ccco2)s/c1=C(/C#N)C(=O)Nc1ccccc1 in this assay? label 1

Could you please tell me the result logged for Cn1cnnc1-c1nn(C)c2c1CN(C(=O)c1cc3ccccc3[nH]1)CC2 in this assay? label 0

Could you please tell me the result logged for CC1CCCN(Cc2c(O)ccc3c(=O)c(-c4ccc(Cl)cc4)c(C(F)(F)F)oc23)C1 (stereo not given) in this assay? label 1

Could you please tell me the result logged for COc1ccccc1N1CCN(C(=O)c2ccc3c(c2)N(Cc2cc(C)ccc2C)C(=O)c2ccccc2S3(=O)=O)CC1 in this assay? label 1

Could you please tell me the result logged for Cc1ccc(C)c(C(=O)Nc2ccncc2)c1 in this assay? label 0

Could you please tell me the result logged for O=C(c1ccc(F)c(F)c1)N1CCC2(CC1)N(c1ccccc1)C(=O)CS2(=O)=O in this assay? label 0

Could you please tell me the result logged for Cc1ccc(NC(=O)c2cnc(-c3ccccc3)nc2-c2ccncc2)c(Br)c1 in this assay? label 1

Could you please tell me the result logged for CCN1CCN(Cc2c(O)ccc3c(=O)c(Oc4ccccc4Cl)c(C(F)(F)F)oc23)CC1 in this assay? label 1

Could you please tell me the result logged for COc1cc(O)c(C(CCN2CCCCC2)c2ccc3c(c2)OCO3)c(OC)c1 (stereo not given) in this assay? label 1

Could you please tell me the result logged for COc1cc(O)c(C(CCN2CCCC(C)C2)c2ccc3c(c2)OCO3)c(OC)c1 (stereo not given) in this assay? label 1

Could you please tell me the result logged for CCc1cccc(-n2c(=O)c3cccnc3n2CC(=O)NCc2ccccc2)c1 in this assay? label 1

Could you please tell me the result logged for CC1CCN(Cc2c(O)ccc3c(=O)c(Oc4ccccc4Cl)c(C(F)(F)F)oc23)CC1 in this assay? label 1

Could you please tell me the result logged for CCOC(=O)C1CCCN(C(=O)c2ccc3c(c2)N(Cc2ccccc2)C(=O)c2ccccc2S3(=O)=O)C1 (stereo not given) in this assay? label 1

Could you please tell me the result logged for COC(=O)[C@@H]1Cc2c([nH]c3ccccc23)[C@H]2C[C@H](N3CCCCC3)C[C@@H](c3ccccc3F)N21 in this assay? label 1

Could you please tell me the result logged for CCc1cc2c(=O)c(-c3cnn(-c4ccccc4)c3)c(C)oc2c(CN2CCCCC2)c1O in this assay? label 1

Could you please tell me the result logged for CCc1cccc(-n2c(=O)c3cccnc3n2CC(=O)NCc2ccc(C)cc2)c1 in this assay? label 1

Could you please tell me the result logged for COc1ccc2c(C)c(C(=O)N3CC(Oc4c(C)cccc4C)C3)oc2c1 in this assay? label 0

Could you please tell me the result logged for N#C/C(=C\c1ccc(Sc2ccc(Cl)cc2)o1)c1nc2ccccc2[nH]1 in this assay? label 1

Could you please tell me the result logged for S=c1[nH]cc(-c2ccc(Cl)cc2)n1-c1ccccc1 in this assay? label 0

Could you please tell me the result logged for CCN1CCN(Cc2ccc(NC(=O)c3ccc(C)c(NC(=O)c4c[nH]c5cc(C(F)(F)F)ccc5c4=O)c3)cc2C(F)(F)F)CC1 in this assay? label 1

Could you please tell me the result logged for CN(C)c1cc(N2CCCC(NC(=O)c3ccsc3)C2)ncn1 (stereo not given) in this assay? label 0

Could you please tell me the result logged for O[C@@H]1CC(CNCC2CCCC2)(COc2ccc(C(F)(F)F)cn2)C[C@@H]1O (stereo not given in full) in this assay? label 1

Could you please tell me the result logged for COc1ccccc1N1CCN(CCCNC(=O)c2cnn(-c3ccccc3Cl)c2C2CCN(C(=O)OC(C)(C)C)CC2)CC1 in this assay? label 1
